tested on: 633275-114-R-J1-PDC complex spheroids, viability; assay: Anticancer human tumor 633275-114-R-J1-PDC patient-derived endometrial adenocarcinoma cell line growth inhibition [GQUAD]; conditions: second compound 0.316 µM; first compound 10 µM; active = viability on the fitted dose curve at most 10% of control; inactive = the rest;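 note: spheroids exposed to the agents for seven days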
Choose one outcome from this list and give only that: Y = active, N = inactive

QUERY: GET /call?item= CC1COCCN1c1cc(C2(S(C)(=N)=O)CC2)nc(-c2ccnc3[nH]ccc23)n1 (stereo not given) + Cc1cnc(CNC(=O)c2c(=O)c3ccc(N4CCCN(C)CC4)nc3n3c2sc2ccccc23)cn1 returns the recorded outcome of this test.
RESULT: N

QUERY: GET /call?item= O=C(c1cc(Cc2n[nH]c(=O)c3ccccc23)ccc1F)N1CCN(C(=O)C2CC2)CC1 + CN(C)c1ccc(Nc2c3ccc(NC(=O)CCN4CCCC4)cc3nc3cc(NC(=O)CCN4CCCC4)ccc23)cc1 returns the recorded outcome of this test.
RESULT: N

QUERY: GET /call?item= C=CC(=O)N1CCN(c2nc(=O)n(-c3c(C)ccnc3C(C)C)c3nc(-c4c(O)cccc4F)c(F)cc23)C(C)C1 (stereo not given) + CN(C)c1ccc(Nc2c3ccc(NC(=O)CCN4CCCC4)cc3nc3cc(NC(=O)CCN4CCCC4)ccc23)cc1 returns the recorded outcome of this test.
RESULT: N

QUERY: GET /call?item= CC1COCCN1c1cc(C2(O)CC3CCC(C2)O3)c2cnn(-c3ccn[nH]3)c2n1 (stereo not given) + Cc1[nH]c2ccc(F)cc2c1-c1nc2c3cccnc3c3ncccc3c2[nH]1 returns the recorded outcome of this test.
RESULT: N

QUERY: GET /call?item= O=C(NO)c1cnc(N2CCN(S(=O)(=O)c3ccc4ccccc4c3)CC2)nc1 + Cc1[nH]c2ccc(F)cc2c1-c1nc2c3cccnc3c3ncccc3c2[nH]1 returns the recorded outcome of this test.
RESULT: Y
